Data credit: patent US9274101B2

- Test system: HepG2 cells
- experiment-summary: HepG2 cells on flat bottom plastic wells, energy sources at a range of concentrations
- Format: cell-based, human
- recorded-conditions: Homo sapiens, HepG2, 72 h; Conc. 0.10 mM; read-out: HepG2 Cells Responses After 72 hours in Culture and a 4 hour Color Development Period
- Description: In this Example, methods for testing adherent cells for their ability to use multiple carbon sources are described. The human hepatocellular carcinoma cell line known as HepG2 (Knowles et al., Science, 209:497-499 [1980]) was chosen for this experiment. […] HepG2 cells were grown in Falcon tissue culture flasks with vented tops. […] An aliquot was counted by trypan blue exclusion and the cell density was adjusted to 1.28×10^5/mL. […]
compounds and their reported activity at 100 µM
Respond with the bare value in %.

// worked examples, activity at 100 µM included
>>> assay_result("COC(=O)CCC(=O)O [mono methyl succinate]")
161
>>> assay_result("N[C@@H](Cc1c[nH]cn1)C(=O)O")
142
>>> assay_result("Cc1cn([C@H]2C[C@H](O)[C@@H](CO)O2)c(=O)[nH]c1=O")
158
>>> assay_result("O=C[C@H](O)[C@@H](O)[C@@H](O)[C@H](O)C(=O)O")
140
>>> assay_result("NC(=O)CC[C@H](N)C(=O)O")
114
>>> assay_result("NC(=O)C[C@H](N)C(=O)O")
190

As a next step, examine the compound that follows.
Suppose we examine the compound `CC(C)[C@H](N)C(=O)O` ; what activity at 100 µM value has been reported?
149

###

molecules and their reported activity at 10000 µM
- Test system: HepG2 cells
- experiment-summary: HepG2 cells on flat bottom plastic wells, energy sources at a range of concentrations
- Format: cell-based, human
- recorded-conditions: Homo sapiens, HepG2, 72 h; Conc. 10 mM; read-out: HepG2 Cells Responses After 72 hours in Culture and a 4 hour Color Development Period
Respond with the bare value in %.

>>> assay_result("NC(=O)CC[C@H](N)C(=O)O [L-glutamine]")
224
>>> assay_result("NC(=O)C[C@H](N)C(=O)O [L-asparagine]")
124
>>> assay_result("CC(C)[C@H](N)C(=O)O [L-valine]")
132
>>> assay_result("COC(=O)CCC(=O)O [mono methyl succinate]")
224
>>> assay_result("N[C@@H](Cc1c[nH]cn1)C(=O)O [L-histidine]")
210

Suppose we examine the molecule Cc1cn([C@H]2C[C@H](O)[C@@H](CO)O2)c(=O)[nH]c1=O [Thymidine] ; what activity at 10000 µM value has been reported?
114

Suppose we examine the molecule O=C[C@H](O)[C@@H](O)[C@@H](O)[C@H](O)C(=O)O [D-galacturonic acid] ; what activity at 10000 µM value has been reported?
179

###

- System: TK-1 cells
- experiment-summary: TK-1 cells in PM1 and PM2 plates, with or without 0.5 mM sodium pyruvate
- Assay type: cell-based, mouse
- recorded-conditions: in the presence of 0.5 mM sodium pyruvate
observable: response of TK-1 cells

>>> assay_result("OC[C@H]1O[C@@H](Oc2ccc(O)cc2)[C@H](O)[C@@H](O)[C@@H]1O")
"gained responses"
>>> assay_result("NCCCC(=O)O")
"gained responses"
>>> assay_result("O=C(O)c1ccc(O)cc1 [4-hydroxy-benzoic acid]")
"gained responses"

###

- System: HL-60 cells
- experiment-summary: Chloramphenicol IC50 for cells in complete medium
- Type: cell-based
- recorded-conditions: Homo sapiens, read-out: IC50 concentration
observable: pIC50
Lab note — pIC50 values are minus log10 of concentrations in M.

Lookup: pIC50 / HL-60 cells / `O=C(N[C@H](CO)[C@H](O)c1ccc([N+](=O)[O-])cc1)C(Cl)Cl`
3.00

###

- System: Undifferentiated HL-60 cells
- experiment-summary: Energy use by undifferentiated HL-60 cells
- Type: cell-based, human
- recorded-conditions: Homo sapiens, HL-60, 24 h; Conc. 15 mM; read-out: Energy Use by Undifferentiated HL-60 Cells
compounds and their reported activity at 15000 µM
Respond with the bare value in %.

Suppose we examine the compound `O=C[C@H](O)[C@@H](O)[C@@H](O)[C@H](O)C(=O)O` ; what activity at 15000 µM value has been reported?
162

Suppose we examine the compound COC(=O)CCC(=O)O [mono methyl succinate] ; what activity at 15000 µM value has been reported?
261

Suppose we examine the compound `N[C@@H](Cc1c[nH]cn1)C(=O)O` ; what activity at 15000 µM value has been reported?
149

Suppose we examine the compound `CC(C)[C@H](N)C(=O)O` ; what activity at 15000 µM value has been reported?
97.7

Suppose we examine the compound `NC(=O)C[C@H](N)C(=O)O` ; what activity at 15000 µM value has been reported?
153

Suppose we examine the compound `Cc1cn([C@H]2C[C@H](O)[C@@H](CO)O2)c(=O)[nH]c1=O` ; what activity at 15000 µM value has been reported?
81.3

Suppose we examine the compound `NC(=O)CC[C@H](N)C(=O)O` ; what activity at 15000 µM value has been reported?
198

###

molecules and their reported activity at 1000 µM
- Tested on: HepG2 cells
- experiment-summary: HepG2 cells cultured on CYTODEX 3 microcarriers, energy sources
- Format: cell-based, human
- recorded-conditions: Homo sapiens, HepG2, 68 h; Conc. 1.00 mM; read-out: Responses of HepG2 Cells Cultured on Microcarriers After 68 hours in Culture and a 4 hour Color Development Period
Respond with the bare value in %.

// worked examples, activity at 1000 µM included
>>> assay_result("O[C@H]1[C@H](O)[C@@H](O)[C@H](O)[C@@H](O)[C@H]1O")
99.8
>>> assay_result("OC[C@H]1O[C@H](O)[C@H](O)[C@@H](O)[C@@H]1O")
122

Suppose we examine the molecule `NC(=O)CC[C@H](N)C(=O)O` ; what activity at 1000 µM value has been reported?
211

Suppose we examine the molecule `O=C(O)CC(O)(CC(=O)O)C(=O)O` ; what activity at 1000 µM value has been reported?
116

Suppose we examine the molecule `O=c1ccn([C@@H]2O[C@H](CO)[C@@H](O)[C@H]2O)c(=O)[nH]1` ; what activity at 1000 µM value has been reported?
109

Suppose we examine the molecule `OC[C@H]1O[C@@](CO)(O[C@H]2O[C@H](CO)[C@@H](O)[C@H](O)[C@H]2O)[C@@H](O)[C@@H]1O` ; what activity at 1000 µM value has been reported?
95.2

###

- Test system: HepG2 cells
- experiment-summary: HepG2 cells on flat bottom plastic wells, energy sources at a range of concentrations
- Type: cell-based, human
- recorded-conditions: Homo sapiens, HepG2, 72 h; Conc. 1.00 mM; read-out: HepG2 Cells Responses After 72 hours in Culture and a 4 hour Color Development Period
compounds and their reported activity at 1000 µM
Respond with the bare value in %.

// worked examples, activity at 1000 µM included
>>> assay_result("NC(=O)C[C@H](N)C(=O)O")
173
>>> assay_result("COC(=O)CCC(=O)O [mono methyl succinate]")
180
>>> assay_result("O=C[C@H](O)[C@@H](O)[C@@H](O)[C@H](O)C(=O)O")
177
>>> assay_result("NC(=O)CC[C@H](N)C(=O)O")
218
>>> assay_result("CC(C)[C@H](N)C(=O)O")
125

Suppose we examine the compound `N[C@@H](Cc1c[nH]cn1)C(=O)O` ; what activity at 1000 µM value has been reported?
148

Suppose we examine the compound `Cc1cn([C@H]2C[C@H](O)[C@@H](CO)O2)c(=O)[nH]c1=O` ; what activity at 1000 µM value has been reported?
150

###

- Test system: HL-60 cells
- experiment-summary: Effect of 10 mM citric acid on HL-60 energy utilization
- Format: cell-based, human
- recorded-conditions: energy source 3.3 mM with 10 mM citric acid; negative control without energy sources and without citric acid
observable: Effect of 10 mM Citric Acid on HL-60 Energy Utilization

// worked examples, Effect of 10 mM Citric Acid on HL-60 Energy Utilization included
>>> assay_result("O=C1O[C@H]([C@@H](O)CO)[C@@H](O)[C@@H]1O")
"188.9 % of negative control"
>>> assay_result("O=C(O)[C@@H]1C[C@@H](O)CN1 [hydroxy L-proline]")
"49.0 % of negative control"
>>> assay_result("COC(=O)CCC(=O)O [mono methyl succinate]")
"163.6 % of negative control"
>>> assay_result("O=C[C@H](O)[C@@H](O)[C@@H](O)[C@H](O)C(=O)O")
"141.6 % of negative control"
>>> assay_result("NC(=O)C[C@H](N)C(=O)O")
"48.6 % of negative control"

Lookup: Effect of 10 mM Citric Acid on HL-60 Energy Utilization / HL-60 cells / `Cc1cn([C@H]2C[C@H](O)[C@@H](CO)O2)c(=O)[nH]c1=O`
27.9 % of negative control

Lookup: Effect of 10 mM Citric Acid on HL-60 Energy Utilization / HL-60 cells / `CC(C)[C@H](N)C(=O)O`
20.8 % of negative control

Lookup: Effect of 10 mM Citric Acid on HL-60 Energy Utilization / HL-60 cells / `O=C1O[C@@H]([C@H](O)CO)[C@H](O)[C@H]1O`
162.8 % of negative control

Lookup: Effect of 10 mM Citric Acid on HL-60 Energy Utilization / HL-60 cells / `NC(=O)CC[C@H](N)C(=O)O`
135.0 % of negative control
